Taken from the kinase profiling compilation of Christmann-Franck et al. (2016).

Biological target: CAMK2G (human)
Assay: radiometric filter-binding kinase assay, Kinase HotSpot
Details: compound 0.5 µM; ATP 10 µM
Measured endpoint: residual activity (%)
Entry rule: numbers only, all in %.

Exam item: Please look up its residual activity: `COc1ccc(S(=O)(=O)N(CCO)c2ccccc2CN(C)C/C=C/c2ccc(Cl)cc2)cc1`
Marked response: 98.6

Exam item: Please look up its residual activity: `O=C1c2ccccc2-c2nc3nnnn3nc21`
Marked response: 91.1

Exam item: Please look up its residual activity: `COc1ccc(C(=O)Nc2sc3c(c2C(N)=O)CCCC3)cc1OC`
Marked response: 95.8

Exam item: Please look up its residual activity: `CO[C@@H]1[C@H](N(C)C(=O)c2ccccc2)C[C@H]2O[C@]1(C)n1c3ccccc3c3c4c(c5c6ccccc6n2c5c31)C(=O)NC4`
Marked response: 43.9

Exam item: Please look up its residual activity: `O=C1C(Cl)=C(N2C(=O)CCC2=O)C(=O)c2ccccc21`
Marked response: 104

Exam item: Please look up its residual activity: `Cc1cccc(-c2nc(C(C)(C)C)[nH]c2-c2ccc3c(c2)OCO3)n1`
Marked response: 85.5

Exam item: Please look up its residual activity: `Fc1ccc(-c2nc3n(c2-c2ccncc2)CCS3)cc1`
Marked response: 90.5

Exam item: Please look up its residual activity: `O=C1Nc2ccc(Br)cc2/C1=C\c1cc2c([nH]1)CCCC2`
Marked response: 92.4

Exam item: Please look up its residual activity: `CC(C)(C)c1cc(C=C(C#N)C#N)cc(Br)c1O`
Marked response: 104

Exam item: Please look up its residual activity: `N#C/C(=C\c1ccc(O)c(O)c1)C(=O)NCc1ccccc1`
Marked response: 94.1
